Target System: 5-hydroxytryptamine receptor 1D (Homo sapiens)
Sequence (P28221 whole entry): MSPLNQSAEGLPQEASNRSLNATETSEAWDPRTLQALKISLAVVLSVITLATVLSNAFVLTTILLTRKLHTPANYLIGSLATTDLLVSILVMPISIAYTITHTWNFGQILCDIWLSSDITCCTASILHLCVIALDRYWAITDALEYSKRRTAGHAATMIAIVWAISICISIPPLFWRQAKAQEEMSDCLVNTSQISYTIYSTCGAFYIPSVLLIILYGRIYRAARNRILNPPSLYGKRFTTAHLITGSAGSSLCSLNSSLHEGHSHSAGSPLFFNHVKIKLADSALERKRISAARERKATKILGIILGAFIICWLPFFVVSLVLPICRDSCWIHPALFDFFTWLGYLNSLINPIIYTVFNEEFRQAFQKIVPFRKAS
Hi! Just check whether Ki is below 30 nM. Below gives T, equal or above gives F.

Past entries and their recorded results:
| Molecule | Classification |
| --- | --- |
| CN(C)CCc1c[nH]c2cc(F)ccc12 | F |
| CCCN(CCC)CCc1c[nH]c2ccccc12 | F |
| NCCc1c2c(c(Br)c3c1OCC3)OCC2 | T |

Lookup: Problem: For the molecule CCc1cc(OC)c(CCN)cc1OC , is Ki under 30 nM?
Found: F

Lookup: Report whether reported Ki is lower than 30 nM (strictly) for CC(N)Cc1ccc2c(c1)OCO2 (stereo not drawn)
Found: F

Lookup: Does COC(=O)[C@@H]1C[C@H](OC(C)=O)C(=O)[C@H]2[C@@]1(C)CC[C@H]1C(=O)O[C@H](c3ccoc3)C[C@]21C have Ki strictly under 30 nM?
Found: F

Lookup: Strictly below 30 nM: is that where Ki of CCSc1cc(OC)c(CCN)cc1OC sits?
Found: F

Lookup: hey, is Ki for COc1cc(OC)c(OC)cc1CC(C)N (stereo not drawn) lower than 30 nM or not?
Found: F

Lookup: Criterion: Ki strictly below 30 nM. Is it met by COc1ccc2[nH]cc(CCN(C)C(C)C)c2c1 ?
Found: T

Lookup: Is 30 nM strictly greater than the molecule's reported Ki? molecule: CN(C)CCc1c[nH]c2ccccc12
Found: F

Lookup: Given COc1cc(CCN)c(OC)cc1Br , is recorded Ki strictly lower than 30 nM?
Found: T

Lookup: Field: below-cutoff. Rule: recorded Ki strictly less than 30 nM. Subject: CC[C@H]1C[C@@H]2C[C@H]3c4[nH]c5ccc(OC)cc5c4CCN(C2)[C@@H]13
Found: F

Lookup: Strictly below 30 nM in Ki? COc1ccc2[nH]cc(CCN(C(C)C)C(C)C)c2c1
Found: F
